- target-or-system: untagged full length SMYD3 (Homo sapiens, UniProt Q9H7B4)
- Construct: As protein untagged full length SMYD3 was used
- test-method-notes: Thermal Shift Assay
- Format: binding
- condition-parameters: protein 1.5-2.0 μM, 5× SYPRO Orange, scans 25° C. to 80° C.; control 4% DMSO
measure: Thermal shift assay (° C.) (°C)
Numbers only here, please. The scale is °C.

Known Thermal shift assay (° C.) results, listed for orientation:
What does the data say about its Thermal shift assay (° C.)? Entry: Cc1nocc1C(=O)N1c2ccc(C(=O)NCCC3CC3)cc2NC(=O)C(C)C1C (single isomer, unassigned) [Example 8]
3.77

What does the data say about its Thermal shift assay (° C.)? Entry: Cc1nocc1C(=O)N1c2ccc(C(=O)NCCC3CCC3)cc2NC(=O)C(C)C1C (single isomer, unassigned) [Example 13]
3.71

What does the data say about its Thermal shift assay (° C.)? Entry: "C[C@H]1CC(=O)Nc2cc(C(=O)NCCC3CC3)ccc2N1C(=O)N1CCC(F)(F)C1"
7.35

What does the data say about its Thermal shift assay (° C.)? Entry: "C[C@H]1CC(=O)Nc2cc(C(=O)NCCC3CC3)ccc2N1C(=O)N1CC[C@H](N)C1.Cl"
8.66

What does the data say about its Thermal shift assay (° C.)? Entry: "C[C@H]1CC(=O)Nc2cc(C(=O)NCCC3CC3)ccc2N1C(=O)N1CCNCC1"
7.22

What does the data say about its Thermal shift assay (° C.)? Entry: "CCN1CCC(N(C)C(=O)N2c3ccc(C(=O)NCCC4CC4)cc3NC(=O)C[C@@H]2C)CC1"
9.94

What does the data say about its Thermal shift assay (° C.)? Entry: "C[C@H]1CC(=O)Nc2cc(C(=O)NCCC3CC3)ccc2N1C(=O)N1CCC(NCC(F)(F)F)CC1"
5.51

Please examine the following record next.
What does the data say about its Thermal shift assay (° C.)? Entry: "C[C@H]1CC(=O)Nc2cc(C(=O)NCCC3CC3)ccc2N1C(=O)N1CCN(CCO)CC1"
6.08

* * *

Target chain: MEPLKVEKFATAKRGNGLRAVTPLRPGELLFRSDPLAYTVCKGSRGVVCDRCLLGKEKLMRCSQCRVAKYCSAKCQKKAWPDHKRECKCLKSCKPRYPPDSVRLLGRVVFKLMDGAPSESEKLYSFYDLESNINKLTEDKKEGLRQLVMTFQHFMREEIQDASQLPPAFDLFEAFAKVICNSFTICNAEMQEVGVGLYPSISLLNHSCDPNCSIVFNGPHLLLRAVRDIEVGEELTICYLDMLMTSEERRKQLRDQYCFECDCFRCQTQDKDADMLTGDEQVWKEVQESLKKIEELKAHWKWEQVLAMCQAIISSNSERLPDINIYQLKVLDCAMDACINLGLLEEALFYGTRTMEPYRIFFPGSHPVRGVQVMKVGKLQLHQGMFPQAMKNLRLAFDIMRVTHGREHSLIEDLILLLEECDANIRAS
Catalogue of compounds with associated IC50
Numbers only here, please. The scale is nM.

Known IC50 results, listed for orientation:
What does the data say about its IC50? Entry: Cc1nocc1C(=O)N1c2ccc(C(=O)NCCC3CCC3)cc2NC(=O)C(C)C1C (single isomer, unassigned) [Example 13]
4620

What does the data say about its IC50? Entry: C[C@H]1CC(=O)Nc2cc(C(=O)NCCC3CC3)ccc2N1C(=O)N1CCNCC1 [Example 41]
265

What does the data say about its IC50? Entry: C[C@H]1CC(=O)Nc2cc(C(=O)NCCC3CC3)ccc2N1C(=O)N1CC2CC2C1 (stereo partly shown) [Example 23]
58.9

Please examine the following record next.
What does the data say about its IC50? Entry: CC1C(=O)Nc2cc(C(=O)NCCC3CCC3)ccc2N(C(=O)N2CCC(N)CC2)C1C (single isomer, unassigned) [Example 21]
54.2

* * *

- target-or-system: SMYD3 (Homo sapiens)
pIC50: −log10 of the molar value.
Answer false (0) if pIC50 is under 6, and true (1) if it is 6 or more.

These recorded examples may help you get a feel for the data.
Evaluate CC1C(=O)Nc2cc(C(=O)NCCC3CC3)ccc2N(C(=O)N2CCC(N)CC2)C1C (mixture of isomers) [Example 19] : pIC50 at minimum 6?
true (1)

Evaluate Cc1nocc1C(=O)N1c2ccc(C(=O)NCCC3CC3)cc2NC(=O)C(C)C1C (single isomer, unassigned) [Example 10] : pIC50 at minimum 6?
false (0)

Evaluate C[C@H]1CC(=O)Nc2cc(C(=O)NCCC3CC3)ccc2N1C(=O)N1CCC(F)(F)CC1 [Example 25] : pIC50 at minimum 6?
false (0)

Evaluate Cc1nocc1C(=O)N1c2ccc(C(=O)NCCC3CC3)cc2NC(=O)CC1C (racemic) [Example 5] : pIC50 at minimum 6?
false (0)

Continuing:
Evaluate CCN1CCN(C(=O)N2c3ccc(C(=O)NCCC4CC4)cc3NC(=O)C[C@@H]2C)CC1 [Example 27] : pIC50 at minimum 6?
true (1)

Evaluate C[C@H]1CC(=O)Nc2cc(C(=O)NCCC3CC3)ccc2N1C(=O)N(C)C1CCN(CC(F)(F)F)CC1 [Example 31] : pIC50 at minimum 6?
false (0)

* * *

- target-or-system: untagged full length SMYD3 (Homo sapiens, UniProt Q9H7B4)
- Construct: As protein untagged full length SMYD3 was used
- Sequence (Q9H7B4 1-428): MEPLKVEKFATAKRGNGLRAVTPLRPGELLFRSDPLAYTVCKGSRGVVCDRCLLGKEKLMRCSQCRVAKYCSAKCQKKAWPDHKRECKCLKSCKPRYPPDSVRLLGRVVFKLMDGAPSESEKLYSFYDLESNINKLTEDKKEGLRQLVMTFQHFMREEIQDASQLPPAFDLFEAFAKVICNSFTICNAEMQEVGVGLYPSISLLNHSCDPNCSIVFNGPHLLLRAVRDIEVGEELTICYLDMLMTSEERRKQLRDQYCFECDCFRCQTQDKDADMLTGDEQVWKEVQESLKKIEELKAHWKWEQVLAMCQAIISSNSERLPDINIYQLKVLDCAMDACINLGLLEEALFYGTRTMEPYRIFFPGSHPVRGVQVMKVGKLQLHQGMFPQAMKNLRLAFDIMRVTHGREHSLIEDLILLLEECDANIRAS
- test-method-notes: Thermal Shift Assay
- Type: binding
- condition-parameters: protein 1.5-2.0 μM, 5× SYPRO Orange, scans 25° C. to 80° C.; control 4% DMSO
- Description: Thermal Shift Assay Thermal melting experiments were performed with a ViiA™ Real-Time PCR machine (Thermo Fisher Scientific) in 384-well microliter plate with a final volume of 5 μL. Melting curves were obtained at a protein concentration of 1.5-2.0 μM and 5× SYPRO Orange (Invitrogen) using buffer containing 20 mM Tris pH7.0; 150 mM NaCl; 1.0 mM DTT. […] Scans were measured from 25° C. to 80° C. at a scanning rate of 0.1° C./sec. All TSA data were analyzed by using Genedata Assay Analyzer.
measure: Thermal shift assay (° C.)

What does the data say about its Thermal shift assay (° C.)? Entry: CCCCNC(=O)c1ccc2c(c1)NC(=O)CC(C)N2C(=O)CCC1CCCC1 (racemic)
1.83 °C

What does the data say about its Thermal shift assay (° C.)? Entry: CCCCCNC(=O)c1ccc2c(c1)NC(=O)CC(C)N2C(=O)C1CCCC1 (racemic)
1.60 °C

What does the data say about its Thermal shift assay (° C.)? Entry: CCCCNC(=O)c1ccc2c(c1)NC(=O)CC(C)N2C(=O)c1ccccc1F (racemic)
2.53 °C

Continuing:
What does the data say about its Thermal shift assay (° C.)? Entry: CC1C(=O)Nc2cc(C(=O)NCCC3CC3)ccc2N(C(=O)c2ccccc2)C1C (mixture of isomers)
5.21 °C

What does the data say about its Thermal shift assay (° C.)? Entry: Cc1nocc1C(=O)N1c2ccc(C(=O)NCCC3CCC3)cc2NC(=O)C(C)C1C (single isomer, unassigned) [Example 15]
1.27 °C

What does the data say about its Thermal shift assay (° C.)? Entry: "CCN1CCN(C(=O)N2c3ccc(C(=O)NCCC4CC4)cc3NC(=O)C[C@@H]2C)CC1"
8.77 °C

What does the data say about its Thermal shift assay (° C.)? Entry: "C[C@H]1CC(=O)Nc2cc(C(=O)NCCC3CC3)ccc2N1C(=O)N(C)C1CCN(CC(F)(F)F)CC1"
2.79 °C

* * *

- target-or-system: untagged full length SMYD3 (Homo sapiens, UniProt Q9H7B4)
- Construct: As protein untagged full length SMYD3 was used
- test-method-notes: Thermal Shift Assay
- Format: binding
- condition-parameters: protein 1.5-2.0 μM, 5× SYPRO Orange, scans 25° C. to 80° C.; control 4% DMSO
Catalogue of molecules with associated Thermal shift assay (° C.)
Numbers only here, please. The scale is °C.

Please state recorded Thermal shift assay (° C.) (tested on untagged full length SMYD3 (Homo sapiens, UniProt Q9H7B4)) of C[C@H]1CC(=O)Nc2cc(C(=O)NCCC3CC3)ccc2N1C(=O)N1CCN(CC(F)(F)F)CC1 [Example 30]
5.69

Please state recorded Thermal shift assay (° C.) (tested on untagged full length SMYD3 (Homo sapiens, UniProt Q9H7B4)) of C[C@H]1CC(=O)Nc2cc(C(=O)NCCC3CC3)ccc2N1C(=O)NC1CCNCC1 [Example 43]
7.49

Please state recorded Thermal shift assay (° C.) (tested on untagged full length SMYD3 (Homo sapiens, UniProt Q9H7B4)) of C[C@H]1CC(=O)Nc2cc(C(=O)NCCC3CC3)ccc2N1C(=O)N(C)C1CCNCC1 [Example 45]
7.24

Please state recorded Thermal shift assay (° C.) (tested on untagged full length SMYD3 (Homo sapiens, UniProt Q9H7B4)) of Cc1nocc1C(=O)N1c2ccc(C(=O)NCCC3CCC3)cc2NC(=O)C(C)C1C (single isomer, unassigned) [Example 16]
3.51

Please state recorded Thermal shift assay (° C.) (tested on untagged full length SMYD3 (Homo sapiens, UniProt Q9H7B4)) of CCCCCNC(=O)c1ccc2c(c1)NC(=O)CC(C)N2C(=O)c1ccccc1F (racemic) [Example 46]
2.02

Please examine the following record next.
Please state recorded Thermal shift assay (° C.) (tested on untagged full length SMYD3 (Homo sapiens, UniProt Q9H7B4)) of Cc1nocc1C(=O)N1c2ccc(C(=O)NCCC3CC3)cc2NC(=O)C(C)C1C (single isomer, unassigned) [Example 11]
3.50

Provenance of the data: patent US11161825B2
